Target of assay: Recombinant KAT6A/MOZ (488-778) protein (Homo sapiens (Human), UniProt Q92794)
Sequence (Q92794 488-778): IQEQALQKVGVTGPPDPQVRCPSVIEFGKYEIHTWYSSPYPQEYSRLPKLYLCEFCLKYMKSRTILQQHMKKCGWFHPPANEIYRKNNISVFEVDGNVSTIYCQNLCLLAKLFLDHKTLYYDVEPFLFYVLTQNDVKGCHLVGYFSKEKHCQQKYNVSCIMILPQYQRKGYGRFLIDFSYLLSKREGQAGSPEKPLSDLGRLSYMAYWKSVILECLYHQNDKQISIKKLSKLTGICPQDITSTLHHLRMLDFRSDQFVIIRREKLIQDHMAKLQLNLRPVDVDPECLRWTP
Method description: KAT6A AlphaLISA Inhibition Screening Assay
Type: biochemical
Experimental conditions: read-out: Average Kat6A % inhibition @ 1 μM; 1 μM test compound
Each entry below carries its reported inhibition at 1 µM.
Write down the numeric answer in % and omit the unit.

Field request: inhibition at 1 µM | item: C#CC(=O)NCc1cnc(Oc2cc(OC)c3c(NS(=O)(=O)c4cc(CC)ccc4OC)noc3c2)s1 [Syn. Ex. 103] 97

So what does the record say about inhibition at 1 µM for C#CC(=O)N1CCc2cnn(Cc3cc(OC)c4c(NS(=O)(=O)c5cc(CC)ccc5OC)noc4c3)c2CC1 [Syn. Ex. 9] ? 61

Recorded inhibition at 1 µM of C=C(F)C(=O)NCc1cnn(Cc2cc(OC)c3c(NS(=O)(=O)c4cc(CC)ccc4OCCNC(=O)OC)noc3c2)c1 [Syn. Ex. 79] , please. 99

Fill in: inhibition at 1 µM of CCc1ccc(OCC(=O)O)c(S(=O)(=O)Nc2noc3cc(Cn4cc(CNC(=O)OC)cn4)cc(OC)c23)c1 [Syn. Ex. 62] is ___ 100

Fill in: inhibition at 1 µM of CCc1ccc(OCc2ccc(F)cc2)c(S(=O)(=O)Nc2noc3cc(Cn4cc(CNC(=O)OC)cn4)cc(OC)c23)c1 [Syn. Ex. 122] is ___ 100

Endpoint output: inhibition at 1 µM of CCc1ccc(OC)c(S(=O)(=O)Nc2noc3cc(Cn4cc(CNC(=O)OCCNC(=O)OC(C)(C)C)cn4)cc(OC)c23)c1 [Syn. Ex. 31] . Value? 86

Please report the recorded inhibition at 1 µM for C=C(F)C(=O)NCc1cnn(Cc2cc(OC)c3c(NS(=O)(=O)c4cc(C(C)C)ccc4OC)noc3c2)c1 [Syn. Ex. 59] . 100

###

Target of assay: Recombinant KAT6A/MOZ (488-778) protein (Homo sapiens (Human))
Method description: KAT6A AlphaLISA Inhibition Screening Assay
Format: biochemical
Experimental conditions: read-out: Average Kat6A % inhibition @ 10 μM; 10 μM test compound
Reported values of inhibition at 10 µM for individual entries
Quick reminder: number only, in %, skip the unit.

Consider the reported inhibition at 10 µM for these molecules:
For the molecule shown here, CCc1ccc(OC)c(S(=O)(=O)Nc2noc3cc(Oc4cccc(CNC(=O)OC)n4)cc(OC)c23)c1 [Syn. Ex. 106] , give the reported inhibition at 10 µM. 44

Data request, read-out inhibition at 10 µM, for C=C(F)C(=O)N(C)Cc1cnn(Cc2cc(OC)c3c(NS(=O)(=O)c4cc(CC)ccc4OC)noc3c2)c1 [Syn. Ex. 39] 100

Field request: inhibition at 10 µM | item: C=C(F)C(=O)NCc1cnn(Cc2cc(OC)c3c(NS(=O)(=O)c4cc(C(C)C)ccc4OC)noc3c2)c1 [Syn. Ex. 59] 100

Find the recorded inhibition at 10 µM belonging to COC(=O)NCc1cnn(Cc2cc3onc(NS(=O)(=O)c4ccccc4OC)c3cc2OC)c1 [Syn. Ex. 145] and report it. 108

Reported inhibition at 10 µM for COc1cc2c(cc1S(=O)(=O)Nc1noc3cc(Cn4cc(CNS(C)(=O)=O)cn4)cc(OC)c13)CCC2 [Syn. Ex. 24] : what is it? 100

***
Item CCc1ccc(OCc2ccnc(OC)c2)c(S(=O)(=O)Nc2noc3cc(Cn4cc(CNC(=O)OC)cn4)cc(OC)c23)c1 [Syn. Ex. 95] has what recorded inhibition at 10 µM? 100

Reported inhibition at 10 µM, molecule C#CC(=O)Nc1ccc(Oc2cc(OC)c3c(NS(=O)(=O)c4cc(CC)ccc4OC)noc3c2)nc1 [Syn. Ex. 108] : ____ 100

###

Recorded Average Kat6A % inhibition @ 10 μM, one value per entry.
Target of assay: Recombinant KAT6A/MOZ (488-778) protein (Homo sapiens (Human), UniProt Q92794)
Method description: KAT6A AlphaLISA Inhibition Screening Assay
Type: biochemical
Experimental conditions: 10 μM test compound
All answers are understood in %, so give the number only.

Item under review: COC(=O)NCc1cnn(Cc2cc3onc(NS(=O)(=O)c4cc5c(cc4OC)CCC5)c3cc2OC)c1 [Syn. Ex. 147] . Reported Average Kat6A % inhibition @ 10 μM? 101

Could you share which Average Kat6A % inhibition @ 10 μM value was measured for CCc1cnc(OC)c(S(=O)(=O)Nc2noc3cc(Cn4cc(CNC(=O)OC)cn4)cc(OC)c23)c1 [Syn. Ex. 121] ? 94

Can you look up the measured Average Kat6A % inhibition @ 10 μM of CC#CC(=O)NCc1cnn(Cc2cc(OC)c3c(NS(=O)(=O)c4cc5c(cc4OC)CCC5)noc3c2)c1 [Syn. Ex. 29] for me? 100

Continuing:
Request the reported Average Kat6A % inhibition @ 10 μM associated with CCc1ccc(OC)c(S(=O)(=O)Nc2noc3cc(Oc4ncc(CNC(=O)OC)s4)c(OC)cc23)c1 [Syn. Ex. 149] 102

For the compound C#CC(=O)N1Cc2cnn(Cc3cc(OC)c4c(NS(=O)(=O)c5ccc(C#N)cc5OC)noc4c3)c2C1 [Syn. Ex. 26] , what Average Kat6A % inhibition @ 10 μM is on record? 100

For the compound COC(=O)NCc1cnn(Cc2cc(OC)c3c(NS(=O)(=O)c4c(OC)ccnc4OC)noc3c2)c1 [Syn. Ex. 86] , what Average Kat6A % inhibition @ 10 μM is on record? 100

Which Average Kat6A % inhibition @ 10 μM value is on record for COc1ccccc1S(=O)(=O)Nc1noc2cc(Cn3cc(CNS(C)(=O)=O)cn3)cc(OC)c12 [Syn. Ex. 6] ? 100

###

Target of assay: Recombinant KAT6A/MOZ (488-778) protein (Homo sapiens (Human))
Method description: KAT6A AlphaLISA Inhibition Screening Assay
Format: biochemical
Experimental conditions: 10 μM test compound
Value kind: Average Kat6A % inhibition @ 10 μM (%)
Only the number, expressed in %, is required.

Record excerpt, results attached:
Which Average Kat6A % inhibition @ 10 μM value belongs to COC(=O)NCc1cnn(Cc2cc3c4c(noc4c2)NS(=O)(=O)c2c(OC)cccc2OCCCCCO3)c1 [Syn. Ex. 138] ? 114

Quick one: Average Kat6A % inhibition @ 10 μM of C#CC(=O)NCc1cnn(Cc2cc(OC)c3c(NS(=O)(=O)c4c(OC)ccnc4OC)noc3c2)c1 [Syn. Ex. 85] ? 95

For COC(=O)NCc1cnn(Cc2cc(OC)c3c(NS(=O)(=O)c4ccccc4OC)noc3c2)c1 [Syn. Ex. 7] , what is its reported Average Kat6A % inhibition @ 10 μM? 99

Shifting focus to the molecule that follows.
Quick one: Average Kat6A % inhibition @ 10 μM for COC(=O)NCc1cnn(Cc2cc(OC)c3c(NS(=O)(=O)c4cc5c(cc4OC)CCC5)noc3c2)c1 [Syn. Ex. 25] ? 100

###

Target of assay: Recombinant KAT6A/MOZ (488-778) protein (Homo sapiens (Human), UniProt Q92794)
Method description: KAT6A AlphaLISA Inhibition Screening Assay
Format: biochemical
Experimental conditions: 10 μM test compound
Value kind: Average Kat6A % inhibition @ 10 μM (%)
Unit % implied. Number only.

Example compounds with recorded Average Kat6A % inhibition @ 10 μM:
Quick one: Average Kat6A % inhibition @ 10 μM for C=C(F)C(=O)NCc1cnn(Cc2cc(OC)c3c(NS(=O)(=O)c4cc5c(cc4OC)CCC5)noc3c2)c1 [Syn. Ex. 30] ? 100

Endpoint output: Average Kat6A % inhibition @ 10 μM of C#CC(=O)NCc1cnn(Cc2cc(OC)c3c(NS(=O)(=O)c4cc5c(cc4OC)CCC5)noc3c2)c1 [Syn. Ex. 23] . Value? 100

# Average Kat6A % inhibition @ 10 μM lookup, item CCc1cc(S(=O)(=O)Nc2noc3cc(Cn4cc(CNC(=O)OC)cn4)cc(OC)c23)c(OC)cn1 [Syn. Ex. 120] 100

Name the recorded Average Kat6A % inhibition @ 10 μM for COC(=O)NCc1cnn(Cc2cc3onc(NS(=O)(=O)c4cc(C)cc5cccnc45)c3c3c2CCCO3)c1 [Syn. Ex. 132] . 99

Tell me the measured Average Kat6A % inhibition @ 10 μM of C=C(F)C(=O)Nc1ccc(Oc2cc(OC)c3c(NS(=O)(=O)c4cc5c(cc4OC)CCC5)noc3c2)nc1 [Syn. Ex. 144] , please. 99

More entries:
Quick check: Average Kat6A % inhibition @ 10 μM of C=C(F)C(=O)NCc1cnn(Cc2cc3onc(NS(=O)(=O)c4ccccc4OC)c3cc2OC)c1 [Syn. Ex. 146] ? 101

Record request: Average Kat6A % inhibition @ 10 μM value, item COC(=O)NCc1cnn(Cc2cc(OC)c3c(NS(=O)(=O)c4cc5c(cc4OC)CCO5)noc3c2)c1 [Syn. Ex. 126] 100

Form field: reported Average Kat6A % inhibition @ 10 μM of C=C(F)C(=O)NCc1cnc(Oc2cc(OC)c3c(NS(=O)(=O)c4cc5c(cc4OC)CCC5)noc3c2)s1 [Syn. Ex. 143] 99

So what's the measured Average Kat6A % inhibition @ 10 μM for this one? CCc1ccc(OC)c(S(=O)(=O)Nc2noc3cc(Cn4cc(CNC(=O)OCCN)cn4)cc(OC)c23)c1 [Syn. Ex. 32] 97

Quick check: Average Kat6A % inhibition @ 10 μM of COC(=O)NCc1cnn(Cc2cc(OC)c3c(NS(=O)(=O)c4cc5c(cc4OC)CCCC5)noc3c2)c1 [Syn. Ex. 139] ? 114

Returns the measured Average Kat6A % inhibition @ 10 μM for the input compound. Input: COC(=O)NCc1cnn(Cc2cc(OC)c3c(NS(=O)(=O)c4cc(C)cc5cccnc45)noc3c2)c1 [Syn. Ex. 130] 102

GET /values?readout=Average Kat6A % inhibition @ 10 μM&item= C=C(F)C(=O)NCc1cnn(Cc2cc(OC)c3c(NS(=O)(=O)c4c(OC)ccnc4OC)noc3c2)c1 [Syn. Ex. 87] 100

Give its Average Kat6A % inhibition @ 10 μM value. Item: COC(=O)NCc1cnn(Cc2cc(OC)c3c(NS(=O)(=O)c4cccc5cc(C)cnc45)noc3c2)c1 [Syn. Ex. 129] 102

Find the recorded Average Kat6A % inhibition @ 10 μM belonging to COC(=O)NCc1cnn(Cc2cc(OC)c3c(NS(=O)(=O)c4cccc5c(C)ccnc45)noc3c2)c1 [Syn. Ex. 131] and report it. 100
